molecular target: Cytochrome P450 2C9 (Homo sapiens); assay: blockers of cytochrome P450 2C9 activity – biochemical, luminescence, ADME assay, primary screen (AID 777); conditions: CYP2C9 Supersomes, luciferin-H conversion, at 5 µM, active compounds read high
Screen size: about 96,000 compounds; about 19,000 (20%) were called active. Only a sample is shown.
Decide using inhibition: a value greater than or equal to 30% is T, a smaller one is F.

[ask] Is inhibition at least 30%? Consider CC(=O)N1CCCc2cc(S(=O)(=O)CCC(=O)N3CCN(c4ccccc4)CC3)ccc21
[reply] F

[ask] Is inhibition at least 30%? Consider Cc1c(CCO)c(=O)[nH]n1C(=O)c1c(F)cccc1F
[reply] F

[ask] Is inhibition at least 30%? Consider COc1ccccc1NC(=O)CSc1nnc(Cn2nnc(-c3ccccc3)n2)n1-c1ccccc1
[reply] T

[ask] Is inhibition at least 30%? Consider CCCc1nc(SCC(=O)Nc2ccccc2OC)c2c(=O)n(C)c(=O)n(C)c2n1
[reply] T

[ask] Is inhibition at least 30%? Consider CCN1CCN(Cc2c(O)ccc3c(=O)c(-c4ccc(OC)c(OC)c4)c(C(F)(F)F)oc23)CC1
[reply] F

[ask] Is inhibition at least 30%? Consider CCOc1ccc(S(=O)(=O)n2ccnc2)c2ccccc12
[reply] T

[ask] Is inhibition at least 30%? Consider COc1ccc(C(=O)CSc2n[nH]c(N)n2)cc1
[reply] F

[ask] Is inhibition at least 30%? Consider CN(CC#CCC(c1ccccc1)c1ccccc1)C(C)(C)C
[reply] F

[ask] Is inhibition at least 30%? Consider CCOC(=O)c1sc(=S)n2c1[nH]c(=O)c1ccc(C(=O)OC)cc12
[reply] T

[ask] Is inhibition at least 30%? Consider CCN(CC(=O)Nc1ccccc1OC)C(=O)Cn1cnc2ccccc2c1=O
[reply] F

###

biological target: Cytochrome P450 2C9 (Homo sapiens); experiment: blockers of cytochrome P450 2C9 activity – biochemical, luminescence, ADME assay, primary screen (AID 777); details: CYP2C9 Supersomes, luciferin-H conversion, at 5 µM, active compounds read high
About 19,000 (20%) of roughly 96,000 compounds were called active. These entries were drawn from the full list.
valueKind: inhibition (%)
Return type: number; implicit unit %.

I looked up COC(=O)CSc1nnc(-c2cccnc2)o1 and its inhibition for Cytochrome P450 2C9 (Homo sapiens) was -12.9

I looked up O=S(=O)(/C=C/c1ccccc1)NCCc1ccccn1 and its inhibition for Cytochrome P450 2C9 (Homo sapiens) was -35.1

I looked up Cc1cccc(-n2c(N)cc(=O)nc2SC(C)C(=O)NC2CCCCC2)c1 (stereo not drawn) and its inhibition for Cytochrome P450 2C9 (Homo sapiens) was 27.7

I looked up CC(=O)Oc1ccc(C)cc1N1C(=O)c2ccc(C(=O)O)cc2C1=O and its inhibition for Cytochrome P450 2C9 (Homo sapiens) was -17.9

I looked up O=C(COc1ccc(F)cc1)N(CC1=CCS(=O)(=O)C1)c1ccccc1 and its inhibition for Cytochrome P450 2C9 (Homo sapiens) was -18.6

I looked up O=C(Nc1ccc(N2CCN(C(=O)c3ccccc3)CC2)c(Cl)c1)c1cccnc1 and its inhibition for Cytochrome P450 2C9 (Homo sapiens) was 31.6

I looked up CCC1(C)Cc2c(sc3nc(SC)nc(N)c23)CO1 (stereo not drawn) and its inhibition for Cytochrome P450 2C9 (Homo sapiens) was 30.3

I looked up O=C(COc1ccc(Cl)cc1)N1CCN(S(=O)(=O)c2ccc(Cl)cc2)CC1 and its inhibition for Cytochrome P450 2C9 (Homo sapiens) was 0.1

I looked up Cc1nc2nc(CSc3nc4ccccc4s3)cc(=O)n2[nH]1 and its inhibition for Cytochrome P450 2C9 (Homo sapiens) was 60.1

I looked up Cn1c(=O)[nH]c(=O)c2c1nc(N1CCN(CCO)CC1)n2CCSc1nc2ccccc2s1 and its inhibition for Cytochrome P450 2C9 (Homo sapiens) was -5.4

I looked up COc1cc(OC)cc(-c2cc3nc(C4CCN(C(=O)OC(C)(C)C)CC4)cc(=O)n3[nH]2)c1 and its inhibition for Cytochrome P450 2C9 (Homo sapiens) was -10.3

I looked up COc1ccc(C(C)=O)cc1CN1C(=O)NC2(CCCCC2C)C1=O (stereo not drawn) and its inhibition for Cytochrome P450 2C9 (Homo sapiens) was 9.5

I looked up Cc1c(C(=O)NCc2ccccc2)cnn1-c1ccccc1 and its inhibition for Cytochrome P450 2C9 (Homo sapiens) was -4

I looked up COc1ccc(N2CCN(CCNC(=O)CCN3C(=O)COc4ccccc43)CC2)cc1 and its inhibition for Cytochrome P450 2C9 (Homo sapiens) was -2.8

I looked up CCCc1cc(=O)n2[nH]c(SCc3ccccc3)nc2n1 and its inhibition for Cytochrome P450 2C9 (Homo sapiens) was 43.9

I looked up Cc1c(NC(=O)CSc2cccc3cccnc23)c(=O)n(-c2ccccc2)n1C and its inhibition for Cytochrome P450 2C9 (Homo sapiens) was -25.5

I looked up COC(=O)c1cn(-c2ccccc2)nc1-c1cccnc1 and its inhibition for Cytochrome P450 2C9 (Homo sapiens) was 51.7

I looked up Fc1ccc(Br)cc1/C=N/n1cnnc1 and its inhibition for Cytochrome P450 2C9 (Homo sapiens) was 6.6

I looked up O=C(c1ccccc1-c1ccccc1)N1CCOCC1 and its inhibition for Cytochrome P450 2C9 (Homo sapiens) was 5

I looked up Cc1cc2nc(-c3ccc(NC(=O)c4cccnc4)cc3)oc2cc1C and its inhibition for Cytochrome P450 2C9 (Homo sapiens) was 7.6

I looked up c1nnc2c3c4c(sc3ncn12)CCC4 and its inhibition for Cytochrome P450 2C9 (Homo sapiens) was 8.2

I looked up C=C(C)CSc1nc(N)c2c3c(sc2n1)CCC3 and its inhibition for Cytochrome P450 2C9 (Homo sapiens) was 51.5

I looked up COc1ccc(N2CCN(CCNC(=O)c3nnc(Cc4c(F)cccc4Cl)o3)CC2)cc1 and its inhibition for Cytochrome P450 2C9 (Homo sapiens) was 66.3
